# protocolDescription: Cytotoxicity against human SW480 cells assessed as growth inhibition at 1 mM after 48 hrs by MTT assay
# Format: cell-based
# assayConditions: read-out: GI
measurementType: inhibition at 48 h, 1000 µM (%)
# value in %; strip the unit string

Here is how some molecules turned out for inhibition at 48 h, 1000 µM.
chemSmiles	endpointUnit	inhibition at 48 h, 1000 µM
O=C(O)c1cn([C@H]2[C@@H](O)[C@@H](CO)O[C@@H](Sc3nc4ccccc4s3)[C@@H]2O)nn1	%	70
C#CCO[C@H]1[C@@H](O)[C@@H](CO)O[C@@H](Sc2ccccc2C(=O)OC)[C@@H]1O	%	10

# query: inhibition at 48 h, 1000 µM of entry O=C(NCc1cn([C@@H]2O[C@H](CO)[C@H](O[C@@H]3O[C@H](CO)[C@H](O)[C@H](O)[C@H]3O)[C@H](O)[C@H]2O)nn1)c1cc(C(=O)NCc2cn([C@@H]3O[C@H](CO)[C@H](O[C@@H]4O[C@H](CO)[C@H](O)[C@H](O)[C@H]4O)[C@H](O)[C@H]3O)nn2)cc(C(=O)NCc2cn([C@@H]3O[C@H](CO)[C@H](O[C@@H]4O[C@H](CO)[C@H](O)[C@H](O)[C@H]4O)[C@H](O)[C@H]3O)nn2)c1 75

###

# experimentalTarget: Galectin-9 (Homo sapiens)
# protocolDescription: Ratio IC50 for lactose to compound for galectin-9 binding to biotinylated neoglycoprotein with p-isothiocyanatophynyl lactoside assessed as lectin-neoglycoprotein complex formation after 1 hr by spectrophotometrically relative to lactose
Form field: Ratio IC50 (one value per entry).
Write the value as a bare number.

Here is how some compounds turned out for Ratio IC50.
chemSmiles	quantitativeResult
O=C(NCc1cn([C@@H]2O[C@H](CO)[C@H](O[C@@H]3O[C@H](CO)[C@H](O)[C@H](O)[C@H]3O)[C@H](O)[C@H]2O)nn1)c1cc(C(=O)NCc2cn([C@@H]3O[C@H](CO)[C@H](O[C@@H]4O[C@H](CO)[C@H](O)[C@H](O)[C@H]4O)[C@H](O)[C@H]3O)nn2)cc(C(=O)NCc2cn([C@@H]3O[C@H](CO)[C@H](O[C@@H]4O[C@H](CO)[C@H](O)[C@H](O)[C@H]4O)[C@H](O)[C@H]3O)nn2)c1	7.7
CC(C)(C)C(=O)c1cc(CO[C@@H]2O[C@H](CO)[C@H](O[C@@H]3O[C@H](CO)[C@H](O)[C@H](O)[C@H]3O)[C@H](O)[C@H]2O)on1	1.7
O=C(CCSCCC(F)(F)C(F)(F)C(F)(F)C(F)(F)C(F)(F)C(F)(F)C(F)(F)C(F)(F)F)NC(CO[C@@H]1O[C@H](CO)[C@H](O)[C@H](O)[C@H]1O)(CO[C@@H]1O[C@H](CO)[C@H](O)[C@H](O)[C@H]1O)CO[C@@H]1O[C@H](CO)[C@H](O)[C@H](O)[C@H]1O	5.1

As a next step, examine the compound that follows.
State its Ratio IC50 on Galectin-9 (Homo sapiens): O=S(=O)(O)OCc1cn([C@H]2[C@@H](O)[C@@H](CO)O[C@@H](Sc3nc4ccccc4s3)[C@@H]2O)nn1 1.4
